Target: recombinant human ACC1 (rhACC1) (Homo sapiens, UniProt Q13085, DEL44-44)
Construct: recombinant baculovirus containing full length human ACC1 cDNA
Assay: recombinant hACC1 Transcreener assay (direct inhibition of ACC1 activity)
Settings: Transcreener ADP detection FP assay, 50 μM ATP, 30 μM acetyl-CoA, 120 min at 25° C.
Protocol: For example direct inhibition of ACC activity, for the compound of Formula (1) was determined using preparations of recombinant human ACC1 (rhACC1) and recombinant human ACC2 (rhACC2). […] The data was acquired on a Envision Fluorescence reader (Perkinelmer) using a 620 excitation Cy5 FP general dual mirror, 620 excitation Cy5 FP filter, 688 emission (S) and a 688 (P) emission filter.
Entries and their measured pIC50 follow.
In textbook form, pIC50 equals minus log to base ten of the concentration in mol/L.

• Cc1cccn2cc(C(=O)N3CCC4(CC3)CC(=O)c3c(cnn3C(C)C)C4)nc12 [Example 11A-14] = 6.38
• Cc1nc2c(F)cc(C(=O)N3CCC4(CC3)CC(=O)c3c(cnn3C(C)C)C4)cc2[nH]1 [Example 2A-54] = 6.67

Now take the following compound into account.
Query: What is its pIC50 for recombinant human ACC1 (rhACC1) (Homo sapiens, UniProt Q13085, DEL44-44)? Entry: COCCn1ncc2c1C(=O)CC1(CCN(C(=O)c3ccc(Cl)c(C)c3)CC1)C2 [Example 2A-8]
Response: 4.80

----------
Attribute: IC50
Target: recombinant human ACC1 (rhACC1) (Homo sapiens, UniProt Q13085, DEL44-44)
Construct: recombinant baculovirus containing full length human ACC1 cDNA
Assay: recombinant hACC1 Transcreener assay (direct inhibition of ACC1 activity)
Details: Transcreener ADP detection FP assay, 50 μM ATP, 30 μM acetyl-CoA, 120 min at 25° C.
Reply numerically in nM, unit not repeated.

* CC(C)(C)n1ncc2c1C(=O)CC1(CCN(C(=O)c3ccc4c(c3)NC(=O)CC4)CC1)C2 [Example 2A-34] | 72.4

Query: State its IC50 on recombinant human ACC1 (rhACC1) (Homo sapiens, UniProt Q13085, DEL44-44): CC(C)n1ncc2c1C(=O)CC1(CCN(C(=O)c3cnc4ccnn4c3N)CC1)C2 [Example 2A-40]
Response: 262

Query: Query CC(C)(C)n1ncc2c1C(=O)CC1(CCN(C(=O)c3cc(-c4cccnc4)[nH]n3)CC1)C2 [Example 11A-29] next
Response: 151

----------
The compounds listed here are annotated with their pIC50.
Target: recombinant human ACC2 (rhACC2) (Homo sapiens, UniProt O00763, V2141I)
Construct: a full length Cytomax clone of ACC2 was purchased from Cambridge Bioscience Limited; made in house; host or cells: CHO cells (tetracycline-induced, pcDNA5 FRT TO-TOPO)
Sequence (O00763 whole entry V2141I): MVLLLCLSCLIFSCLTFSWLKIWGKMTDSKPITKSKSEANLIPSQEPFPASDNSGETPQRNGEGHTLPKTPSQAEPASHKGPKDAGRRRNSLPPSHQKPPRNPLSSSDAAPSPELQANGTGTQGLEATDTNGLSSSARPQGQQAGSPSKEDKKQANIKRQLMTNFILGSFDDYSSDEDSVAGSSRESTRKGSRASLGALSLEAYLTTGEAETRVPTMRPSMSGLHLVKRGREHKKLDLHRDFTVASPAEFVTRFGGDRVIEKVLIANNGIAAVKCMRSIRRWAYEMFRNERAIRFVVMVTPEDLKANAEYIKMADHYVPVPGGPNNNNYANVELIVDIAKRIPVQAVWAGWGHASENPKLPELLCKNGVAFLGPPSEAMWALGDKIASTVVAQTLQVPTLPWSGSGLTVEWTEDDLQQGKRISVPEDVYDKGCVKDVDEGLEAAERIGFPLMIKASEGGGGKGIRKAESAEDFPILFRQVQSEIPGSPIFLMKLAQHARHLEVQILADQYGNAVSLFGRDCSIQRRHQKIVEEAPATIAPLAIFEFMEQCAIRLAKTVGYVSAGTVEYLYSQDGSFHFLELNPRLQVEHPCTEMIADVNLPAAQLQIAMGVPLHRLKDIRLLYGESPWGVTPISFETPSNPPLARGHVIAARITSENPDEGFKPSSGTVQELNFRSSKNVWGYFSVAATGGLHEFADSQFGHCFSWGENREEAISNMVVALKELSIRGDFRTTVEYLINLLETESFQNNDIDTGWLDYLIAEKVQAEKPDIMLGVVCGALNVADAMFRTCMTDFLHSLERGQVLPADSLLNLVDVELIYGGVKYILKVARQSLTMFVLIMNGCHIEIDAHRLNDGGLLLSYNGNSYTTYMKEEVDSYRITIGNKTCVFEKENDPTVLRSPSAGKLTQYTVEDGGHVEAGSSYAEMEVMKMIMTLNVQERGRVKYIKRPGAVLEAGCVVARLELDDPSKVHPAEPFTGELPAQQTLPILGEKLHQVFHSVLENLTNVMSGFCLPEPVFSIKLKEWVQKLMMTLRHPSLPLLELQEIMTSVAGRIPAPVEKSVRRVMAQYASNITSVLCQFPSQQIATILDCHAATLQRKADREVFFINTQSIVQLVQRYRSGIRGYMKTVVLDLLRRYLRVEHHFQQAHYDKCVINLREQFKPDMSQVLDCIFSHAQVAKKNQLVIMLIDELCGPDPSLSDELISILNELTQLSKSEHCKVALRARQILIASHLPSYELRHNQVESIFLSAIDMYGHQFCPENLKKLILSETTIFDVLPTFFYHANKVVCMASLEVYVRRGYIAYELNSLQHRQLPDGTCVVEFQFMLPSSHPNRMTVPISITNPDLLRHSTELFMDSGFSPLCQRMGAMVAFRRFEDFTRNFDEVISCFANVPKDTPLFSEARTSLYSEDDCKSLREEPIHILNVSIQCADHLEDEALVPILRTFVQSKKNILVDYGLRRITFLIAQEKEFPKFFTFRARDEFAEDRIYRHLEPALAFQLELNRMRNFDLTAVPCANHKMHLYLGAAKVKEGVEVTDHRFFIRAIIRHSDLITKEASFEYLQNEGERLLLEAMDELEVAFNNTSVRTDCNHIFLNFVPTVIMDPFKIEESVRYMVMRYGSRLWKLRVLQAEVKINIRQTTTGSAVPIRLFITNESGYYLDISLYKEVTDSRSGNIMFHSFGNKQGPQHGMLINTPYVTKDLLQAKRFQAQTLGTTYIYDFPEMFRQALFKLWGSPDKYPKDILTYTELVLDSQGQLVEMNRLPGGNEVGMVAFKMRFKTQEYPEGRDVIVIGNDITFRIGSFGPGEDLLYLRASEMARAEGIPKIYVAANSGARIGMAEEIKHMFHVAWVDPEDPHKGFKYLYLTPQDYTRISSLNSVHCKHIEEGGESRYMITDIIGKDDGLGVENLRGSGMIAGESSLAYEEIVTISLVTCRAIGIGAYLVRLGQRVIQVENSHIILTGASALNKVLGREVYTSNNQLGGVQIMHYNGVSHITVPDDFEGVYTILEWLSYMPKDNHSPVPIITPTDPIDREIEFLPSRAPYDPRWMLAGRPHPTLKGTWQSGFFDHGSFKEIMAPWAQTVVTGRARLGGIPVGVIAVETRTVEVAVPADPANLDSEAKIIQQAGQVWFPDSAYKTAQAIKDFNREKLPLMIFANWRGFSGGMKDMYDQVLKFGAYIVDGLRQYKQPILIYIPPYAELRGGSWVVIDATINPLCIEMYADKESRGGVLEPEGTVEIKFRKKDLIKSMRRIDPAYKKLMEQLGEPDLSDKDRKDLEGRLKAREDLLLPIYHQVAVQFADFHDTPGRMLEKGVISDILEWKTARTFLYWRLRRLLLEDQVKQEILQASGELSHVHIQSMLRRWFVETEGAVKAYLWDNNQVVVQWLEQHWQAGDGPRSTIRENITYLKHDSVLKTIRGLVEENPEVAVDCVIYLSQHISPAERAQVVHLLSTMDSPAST
Test: recombinant hACC2 Transcreener assay (direct inhibition of ACC2 activity)
Assay type: biochemical
Conditions: Transcreener ADP detection FP assay, 50 μM ATP, 30 μM acetyl-CoA, 50 min at 25° C.
# pIC50 is unitless: minus log10 of the molar concentration; print number only

Sample records with pIC50:
* CC(C)(C)n1ncc2c1C(=O)CC1(CCN(C(=O)c3cc4cccnc4[nH]3)CC1)C2 [Example 12A-1] | 7.17
* CC(C)n1ncc2c1C(=O)CC1(CCN(C(=O)c3ccc(-n4cncn4)cc3)CC1)C2 [Example 11A-54] | 6.53
* CC(C)(C)n1ncc2c1C(=O)CC1(CCN(C(=O)c3cc4ccncc4[nH]3)CC1)C2 [Example 11A-73] | 7.43

Now take the following compound into account.
Query: Fill in the blank: the reported pIC50 of Cc1nc2c(F)cc(C(=O)N3CCC4(CC3)CC(=O)c3c(cnn3C(C)(C)C)C4)cc2[nH]1 [Example 2A-55] is ____.
Response: 6.98
